The values you see were collected from patent US5962533A.

assay: Chronic toxicity, one dose per day for five days; assay type: in vivo; conditions: mouse, in vivo; read-out: chronic LD50
quantity-name: LD50
Give your result as the value with the unit written after it.

Fill blank: measured LD50 of the compound "CCNCCCCNCCCCNCCCCNCC" is ____.
38 mg/kg

###

System: polyamine transport apparatus
Assay: Competition with radiolabeled spermidine for uptake into L1210 cells (Ki)
Format: cell-based, Murine
Details: tetraamine analogues; L1210 cells, radiolabeled spermidine uptake; read-out: Ki, actual (Table 1)
Description: The same cell line was utilized to evaluate the tetraamines's competition with radiolabeled spermidine for the polyamine uptake apparatus (Ki). The Ki values here are the concentrations of drugs required to inhibit the uptake of radioactive spermidine transport by 50% (Table 1). Uptake Determinations. The polyamine derivatives were studied for their ability to compete with [^3 H]SPD or [^14 C]SPD for uptake into L1210 leukemia cells in vitro. […]
pKi: −log10 of the molar value.
Classify by measured pKi: 1 if it is equal to or exceeds 5, 0 if it is smaller.

- CCCNCCCNCCCCNCCCNCCC [DPSPM]: 1
- CC(C)(C)NCCCCNCCCCNCCCCNC(C)(C)C [DTBHSPM]: 0
- CC(C)NCCCNCCCNCCCNC(C)C [DIPNSPM]: 0
- C(CCNCCCCNC12CC3CC(CC(C3)C1)C2)CNCCCCNC12CC3CC(CC(C3)C1)C2 [BAHSPM]: 1
- c1cc(CNCCCCNCc2ccncc2)ccn1 [PYR(4,4,4)]: 0
- CCNCCCCNCCCNCCCCNCC [DE(4,3,4)]: 1

Assess whether reported pKi for CNCCCNCCCNCCCNC [DMNSPM] sits at 5 or higher.
1

In plain terms: is recorded pKi at least 5 for c1cc(NCCCNc2ccncc2)ccn1 [PYR(3,3,3)] ?
0

Would you say CCNCCCNCCCNCCCNCC [DENSPM, Diethylnorspermine] shows pKi at minimum 5?
0
